The origin of these recorded values is ChEMBL document CHEMBL5385859.

biological target: UniProtKB Q8NER1; test: Inhibition of TRPV1 (unknown origin)
Sequence (Q8NER1 whole entry): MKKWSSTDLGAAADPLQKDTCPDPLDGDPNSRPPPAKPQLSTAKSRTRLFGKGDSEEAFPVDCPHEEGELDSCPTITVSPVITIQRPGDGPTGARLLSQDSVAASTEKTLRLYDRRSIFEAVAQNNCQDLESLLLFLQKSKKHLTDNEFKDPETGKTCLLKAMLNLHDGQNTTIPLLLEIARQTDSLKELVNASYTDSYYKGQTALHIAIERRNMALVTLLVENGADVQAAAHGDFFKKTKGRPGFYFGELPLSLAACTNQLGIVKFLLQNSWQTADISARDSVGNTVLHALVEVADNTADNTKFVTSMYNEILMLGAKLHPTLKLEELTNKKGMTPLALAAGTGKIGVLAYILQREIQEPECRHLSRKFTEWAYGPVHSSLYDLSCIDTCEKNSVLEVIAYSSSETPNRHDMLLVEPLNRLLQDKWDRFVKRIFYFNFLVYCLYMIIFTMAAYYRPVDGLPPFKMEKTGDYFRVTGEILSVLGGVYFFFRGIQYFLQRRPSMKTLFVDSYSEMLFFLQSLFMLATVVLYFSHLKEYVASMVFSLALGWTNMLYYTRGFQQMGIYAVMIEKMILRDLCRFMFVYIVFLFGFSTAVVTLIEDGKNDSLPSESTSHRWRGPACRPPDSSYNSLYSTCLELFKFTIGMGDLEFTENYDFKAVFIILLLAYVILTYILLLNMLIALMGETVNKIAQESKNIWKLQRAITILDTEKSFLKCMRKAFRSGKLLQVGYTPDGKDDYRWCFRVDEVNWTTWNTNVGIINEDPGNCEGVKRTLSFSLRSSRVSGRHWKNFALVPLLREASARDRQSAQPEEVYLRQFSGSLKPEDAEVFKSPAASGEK
pIC50: −log10 of the molar value.
ASSAY_METRIC: pIC50

>>> print(df.to_string())
                compound  assay_metric  readout_number
0  CC(C)c1cccc(C(C)C)c1O         pIC50            8.30

----------
Some molecules, each annotated with its measured logD.
experiment: Lipophilicity, […] of the compound at pH 6.5; type: physicochemical; conditions: buffer
ASSAY_METRIC: logD

                                   compound  readout_number
0  C[C@H](NC(=O)Cn1cnc2ccc(F)c(F)c21)c1ccc(C(C)(C)C)cc1            4.34
1  Cc1ccc(N2c3cccc(C(=O)Nc4ccc(OCC(F)(F)F)nc4)c3OC[C@@H]2CO)nc1            3.83
2  O=C(Nc1ccccc1Br)N[C@@H]1CCN(c2ccc(C(F)(F)F)cn2)C1            3.98
